Tested on: NL-RLuc virus
experiment: Inhibition of HIV Replication (NL-RLuc luciferase reporter virus in MT-2 cells)
Format: cell-based
measurementParameters: Human immunodeficiency virus 1, MT2, 120 h
pEC50: −log10 of the molar value.
Consider the following molecules and their measured pEC50 readings.
measuredMetric: pEC50

{"molecule": "Cc1nc(C)c(COc2ccc(-c3c(C)nc(C)c([C@H](OC(C)(C)C)C(=O)O)c3N3CCC(C)(C)CC3)cc2)s1", "systemUnderTest": "NL-RLuc virus", "experimentalResult": 7.92}
{"molecule": "Cc1nc(C)c([C@H](OC(C)(C)C)C(=O)O)c(N2CCC(C)(C)CC2)c1-c1ccc(OCCc2cc(F)c(F)cc2F)cc1", "systemUnderTest": "NL-RLuc virus", "experimentalResult": 8.52}
{"molecule": "Cc1nc(C)c(CCOc2ccc(-c3c(C)nc(C)c([C@H](OC(C)(C)C)C(=O)O)c3N3CCC(C)(C)CC3)cc2)s1", "systemUnderTest": "NL-RLuc virus", "experimentalResult": 9.00}
{"molecule": "Cc1nc(C)c([C@H](OC(C)(C)C)C(=O)O)c(N2CCC(C)(C)CC2)c1-c1ccc(OCc2ccc(C#N)cc2)cc1", "systemUnderTest": "NL-RLuc virus", "experimentalResult": 8.52}
{"molecule": "CCC1(C)CCN(c2c(-c3ccc(OCCc4ccc(F)cc4)cc3)c(C)nc(C)c2[C@H](OC(C)(C)C)C(=O)O)CC1", "systemUnderTest": "NL-RLuc virus", "experimentalResult": 8.40}
{"molecule": "Cc1nc(C)c([C@H](OC(C)(C)C)C(=O)O)c(N2CCC(C)(C)CC2)c1-c1ccc(OCCc2ccc(C#N)cc2)cc1", "systemUnderTest": "NL-RLuc virus", "experimentalResult": 8.70}
{"molecule": "Cc1nc(C)c([C@H](OC(C)(C)C)C(=O)O)c(N2CCC(C)(C)CC2)c1-c1ccc(OCc2ccccc2)cc1", "systemUnderTest": "NL-RLuc virus", "experimentalResult": 7.96}
{"molecule": "Cc1nc(C)c([C@H](OC(C)(C)C)C(=O)O)c(N2CCC(C)(C)CC2)c1-c1ccc(OCC(C)c2ccc(F)cc2)cc1 (some centres unmarked)", "systemUnderTest": "NL-RLuc virus", "experimentalResult": 7.96}
{"molecule": "Cc1nc(C)c([C@H](OC(C)(C)C)C(=O)O)c(N2CCC(C)(F)CC2)c1-c1ccc(OCCc2ccc(F)cc2)cc1", "systemUnderTest": "NL-RLuc virus", "experimentalResult": 8.40}
{"molecule": "Cc1nc(-c2ccccc2)sc1COc1ccc(-c2c(C)nc(C)c([C@H](OC(C)(C)C)C(=O)O)c2N2CCC(C)(C)CC2)cc1", "systemUnderTest": "NL-RLuc virus", "experimentalResult": 7.54}
{"molecule": "Cc1nc(C)c([C@H](OC(C)(C)C)C(=O)O)c(N2CCC(C)(C)CC2)c1-c1ccc(OCc2ccccc2)c(F)c1", "systemUnderTest": "NL-RLuc virus", "experimentalResult": 7.92}
{"molecule": "Cc1nc(C)c([C@H](OC(C)(C)C)C(=O)O)c(N2CCC(C)(C)CC2)c1-c1ccc(OCc2ccc(C(N)=O)cc2)cc1", "systemUnderTest": "NL-RLuc virus", "experimentalResult": 7.92}
{"molecule": "Cc1nc(C)c([C@H](OC(C)(C)C)C(=O)O)c(N2CCC(C)(C)CC2)c1-c1ccc(OCC(C)(C)c2ccc(Cl)cc2)cc1", "systemUnderTest": "NL-RLuc virus", "experimentalResult": 7.82}
{"molecule": "Cc1nc(C)c([C@H](OC(C)(C)C)C(=O)O)c(N2CCC(C)(C)CC2)c1-c1ccc(OCc2cccc(F)c2)cc1", "systemUnderTest": "NL-RLuc virus", "experimentalResult": 8.05}
{"molecule": "Cc1nc(C)c([C@H](OC(C)(C)C)C(=O)O)c(N2CCC(C)(C)CC2)c1-c1ccc(OCCc2ccc(OCc3ccccc3)cc2)cc1", "systemUnderTest": "NL-RLuc virus", "experimentalResult": 7.33}
{"molecule": "Cc1nc(C)c([C@H](OC(C)(C)C)C(=O)O)c(N2CCC(C)(C)CC2)c1-c1ccc(OCCc2ccc3ccccc3c2)cc1", "systemUnderTest": "NL-RLuc virus", "experimentalResult": 8.22}
{"molecule": "CC(C)=C1CCN(c2c(-c3ccc(OCCc4ccc(F)cc4)cc3)c(C)nc(C)c2[C@H](OC(C)(C)C)C(=O)O)CC1", "systemUnderTest": "NL-RLuc virus", "experimentalResult": 6.54}
{"molecule": "COC1(C)CCN(c2c(-c3ccc(OCCc4ccc(F)cc4)cc3)c(C)nc(C)c2[C@H](OC(C)(C)C)C(=O)O)CC1", "systemUnderTest": "NL-RLuc virus", "experimentalResult": 8.70}
{"molecule": "Cc1nc(C)c([C@H](OC(C)(C)C)C(=O)O)c(N2CCC(C)(C)CC2)c1-c1ccc(OCCc2ccc(Cl)cc2)cc1", "systemUnderTest": "NL-RLuc virus", "experimentalResult": 7.77}
{"molecule": "Cc1nc(C)c([C@H](OC(C)(C)C)C(=O)O)c(N2CCC(c3ccccc3)CC2)c1-c1ccc(OCCc2ccc(F)cc2)cc1", "systemUnderTest": "NL-RLuc virus", "experimentalResult": 6.13}
{"molecule": "Cc1nc(C)c([C@H](OC(C)(C)C)C(=O)O)c(N2CCC(C)(C)CC2)c1-c1ccc(OCc2ccncc2)cc1", "systemUnderTest": "NL-RLuc virus", "experimentalResult": 8.70}
{"molecule": "Cc1ccc(CCOc2ccc(-c3c(C)nc(C)c([C@H](OC(C)(C)C)C(=O)O)c3N3CCC(C)(C)CC3)cc2)s1", "systemUnderTest": "NL-RLuc virus", "experimentalResult": 8.30}
{"molecule": "Cc1nc(C)c([C@H](OC(C)(C)C)C(=O)O)c(N2CCC(C)(C)CC2)c1-c1ccc(O)cc1", "systemUnderTest": "NL-RLuc virus", "experimentalResult": 6.76}
{"molecule": "Cc1nc(C)c([C@H](OC(C)(C)C)C(=O)O)c(N2CCC(C)(C)CC2)c1-c1ccc(OCCc2cccnc2)cc1", "systemUnderTest": "NL-RLuc virus", "experimentalResult": 9.00}
{"molecule": "CCCOc1c(C)cc(-c2c(C)nc(C)c([C@H](OC(C)(C)C)C(=O)O)c2N2CCC(C)(C)CC2)cc1C", "systemUnderTest": "NL-RLuc virus", "experimentalResult": 7.59}
{"molecule": "Cc1nc(C)c([C@H](OC(C)(C)C)C(=O)O)c(N2CCC(C)(C)CC2)c1-c1ccc(OCCc2ccncc2)cc1", "systemUnderTest": "NL-RLuc virus", "experimentalResult": 9.00}
